Taken from patent US10975037B2.

# assay target: full-length human RORγt (Homo sapiens (Human))
# experiment description: RORγt (full-length human) reporter assay, conditions A or B, HEK293T cells
# Format: cell-based
# condition context: HEK-293T; 0.67 μM compound concentration (footnote ****); read-out: RORγt (FL) Reporter Assay A or B, % inhibition
The following compounds are listed with their measured inhibition at 0.67 µM values.

query smiles: CCn1nc(C(=O)NC[C@]2(O)CC[C@@H](S(C)(=O)=O)CC2)c(C)c1-c1ccc(CCCC(F)(F)F)cc1OC
inhibition at 0.67 µM (%): 87

query smiles: CCn1nc(C(=O)NC[C@H]2CC[C@H](S(C)(=O)=O)CC2)c(Cl)c1-c1ccc(CC(C)(C)C(F)(F)F)cc1OC
inhibition at 0.67 µM (%): 96

query smiles: CCn1nc(C(=O)NC[C@H]2CC[C@H](S(C)(=O)=O)CC2)c(C)c1-c1ccc(CCCC(F)(F)F)cc1OC
inhibition at 0.67 µM (%): 87

---

# assay target: full-length human RORγt (Homo sapiens (Human), UniProt P51449)
# Sequence (P51449 other isoform, or with tags, fused parts or gaps): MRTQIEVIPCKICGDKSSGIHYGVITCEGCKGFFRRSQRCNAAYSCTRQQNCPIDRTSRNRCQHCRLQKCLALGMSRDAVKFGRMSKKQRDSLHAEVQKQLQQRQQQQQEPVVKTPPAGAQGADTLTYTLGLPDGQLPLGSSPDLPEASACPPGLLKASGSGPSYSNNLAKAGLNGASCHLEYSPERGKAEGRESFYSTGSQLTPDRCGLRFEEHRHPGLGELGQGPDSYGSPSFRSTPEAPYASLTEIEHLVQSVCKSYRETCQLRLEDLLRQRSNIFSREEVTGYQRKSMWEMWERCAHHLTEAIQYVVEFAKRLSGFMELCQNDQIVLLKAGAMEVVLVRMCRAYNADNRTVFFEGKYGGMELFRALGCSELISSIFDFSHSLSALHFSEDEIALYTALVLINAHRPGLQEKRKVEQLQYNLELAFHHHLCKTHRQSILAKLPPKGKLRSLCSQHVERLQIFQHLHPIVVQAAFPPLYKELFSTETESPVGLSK
# experiment description: RORγt (full-length human) reporter assay, conditions A or B, HEK293T cells
# Assay type: cell-based
# condition context: RORγt (FL) Reporter Assay A or B, IC50, HEK293T cells
# Method: RORγt (Full-Length Human) Reporter Assay: HEK293T cells were plated at 35,000 per well in 96-well plate in medium of DMEM with 10% FBS. […] Firefly luciferase luminescence was measured using a BMG Pherastar plate reader. […] Renilla luminescence was measured using a BMG Pherastar plate reader. […] IC50s were generated by plotting final Renilla normalized data against compound concentration and percent inhibition was calculated against DMSO control. […]
pIC50: −log10 of the molar value. Structures can show the parent of a compound that is named as a salt.

compound: CCn1nc(C(=O)NC[C@H]2CC[C@H](S(C)(=O)=O)CC2)c(Cl)c1-c1ccc(CC(C)(C)C(F)(F)F)cc1OC(F)F
pIC50: 8.36
--
compound: CCn1nc(C(=O)NC[C@H]2CC[C@H](S(C)(=O)=O)CC2)c(C)c1-c1ccc(CCCC(F)(F)F)cc1OC
pIC50: 7.85
--
compound: CCCn1nc(C(=O)NC[C@H]2CC[C@H](S(C)(=O)=O)CC2)c(Cl)c1-c1ccc(C[C@@H](C)C(F)(F)F)cc1OC (single isomer, unassigned)
pIC50: 8.15
--
compound: CCn1nc(C(=O)NC[C@@H]2CC[C@@H](S(C)(=O)=O)CN2)c(Cl)c1-c1ccc(CC(C)(C)C(F)(F)F)cc1OC(F)F (stereo in doubt) [Example 10, hydrobromide]
pIC50: 7.60
--
compound: CCn1nc(C(=O)NC[C@]2(O)CC[C@@H](S(C)(=O)=O)CC2)c(Cl)c1-c1ccc(C[C@H](C)C(F)(F)F)cc1OC(F)F (single isomer, unassigned)
pIC50: 8.06

---

The following compounds are listed with their measured pKd values.
# assay target: human RORγt ligand binding domain (RORγt LBD) (Homo sapiens (Human), UniProt P51449)
# Sequence (P51449 other isoform, or with tags, fused parts or gaps): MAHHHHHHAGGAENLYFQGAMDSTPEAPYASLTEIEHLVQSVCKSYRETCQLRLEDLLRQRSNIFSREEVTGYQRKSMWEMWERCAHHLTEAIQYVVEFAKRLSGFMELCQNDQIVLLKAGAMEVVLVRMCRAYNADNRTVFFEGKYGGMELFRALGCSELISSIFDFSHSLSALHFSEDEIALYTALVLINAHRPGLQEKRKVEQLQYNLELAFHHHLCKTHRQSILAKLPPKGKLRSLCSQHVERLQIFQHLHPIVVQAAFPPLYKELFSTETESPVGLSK
# experiment description: RORγt ThermoFluor® assay (thermal shift binding)
# condition context: ThermoFluor® Assay, Kd
# Text: This approach is applicable to a wide variety of systems, and rigorous in theoretical interpretation through quantitation of equilibrium binding constants (KD). The shift in the melting point described as a ΔTm is proportional to the concentration and affinity of the ligand. RORγt ThermoFluor® Assay Construct […]
pKd: −log10 of the molar value. Where a name gives a salt, the structure may show the parent alone.
assay metric: pKd

compound: CCn1nc(C(=O)NC[C@@H]2CC[C@@H](S(C)(=O)=O)C[C@H]2O)c(Cl)c1-c1ccc(CC(C)(C)C(F)(F)F)cc1OC(F)F (single isomer, unassigned)
assay target: human RORγt ligand binding domain (RORγt LBD) (Homo sapiens (Human), UniProt P51449)
assay metric: pKd
endpoint value: 9.36
//
compound: CCn1nc(C(=O)NC[C@@H]2CC[C@H](S(C)(=O)=O)CO2)c(Cl)c1-c1ccc(N[C@H](C)C(F)(F)F)cc1OC (relative stereo)
assay target: human RORγt ligand binding domain (RORγt LBD) (Homo sapiens (Human), UniProt P51449)
assay metric: pKd
endpoint value: 6.62
//
compound: CCn1nc(C(=O)NC[C@]2(O)CC[C@@H](S(C)(=O)=O)C[C@H]2N)c(Cl)c1-c1ccc(CC(C)(C)C(F)(F)F)cc1OC(F)F (stereo in doubt) [Example 5, Hydrobromide]
assay target: human RORγt ligand binding domain (RORγt LBD) (Homo sapiens (Human), UniProt P51449)
assay metric: pKd
endpoint value: 8.77
